fraction ligated listing for selected variants.
B1: F1*; the commonest letter at each place (parent)
chain: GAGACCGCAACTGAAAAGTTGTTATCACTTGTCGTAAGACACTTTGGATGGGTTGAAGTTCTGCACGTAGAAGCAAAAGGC

Variants of: B1
Test: fraction ligated after 30 min (ligated reads / total reads); higher = more ligase activity
Settings: with F1*sub RNA substrate (template-directed ligation), 42 °C

variant designation	fraction ligated
A27G C40T	0.817
A56G A57C	0.748
T35A G55T	0.834
C26T T35G	0.817
T49A G50A	0.281
T23A A37G	0.84
A24G A57G	0.762
G34C A57G	0.854
A36C A48T	0.8
A36C A41C	0.782
C28T C40G	0.81

These measurements were taken from the supplement of paper PMC6755084.
